measured on: UniProt:Q00534
Sequence (Q00534 whole entry): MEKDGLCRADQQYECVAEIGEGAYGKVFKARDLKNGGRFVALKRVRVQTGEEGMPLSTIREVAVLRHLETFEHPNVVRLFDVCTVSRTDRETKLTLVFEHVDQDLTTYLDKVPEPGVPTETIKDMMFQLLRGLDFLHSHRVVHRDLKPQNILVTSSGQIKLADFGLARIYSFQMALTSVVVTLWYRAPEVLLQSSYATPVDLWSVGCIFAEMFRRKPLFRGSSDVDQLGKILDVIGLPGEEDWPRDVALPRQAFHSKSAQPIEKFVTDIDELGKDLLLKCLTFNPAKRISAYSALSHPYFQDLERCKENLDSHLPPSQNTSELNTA
Sequence (P30281 whole entry partner): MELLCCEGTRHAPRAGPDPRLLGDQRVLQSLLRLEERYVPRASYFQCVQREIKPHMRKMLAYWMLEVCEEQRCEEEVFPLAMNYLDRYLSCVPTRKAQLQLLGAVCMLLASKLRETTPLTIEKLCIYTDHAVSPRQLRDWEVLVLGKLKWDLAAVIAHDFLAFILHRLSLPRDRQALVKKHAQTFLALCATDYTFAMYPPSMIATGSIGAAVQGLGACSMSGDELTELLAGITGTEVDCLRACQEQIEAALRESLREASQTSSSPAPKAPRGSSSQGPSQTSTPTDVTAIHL
test: CDK6 Inhibition Assay
Reported values of IC50 for individual entries
Value expressed in nM; do not type the unit.

Solved entries (count: 3):
CN1CCC(COc2ccc(Nc3ncc(F)c(-c4cc(F)c5nc6n(c5c4)C(C)(C)CC6)n3)nc2)CC1: 1.89
CCN1CCC(c2ccc(Nc3ncc(F)c(-c4cc(F)c5nc6n(c5c4)C(C)(C)CC6)n3)nc2)CC1 [Example 3, reference compound]: 1.93
CCN1CCC(COc2ccc(Nc3cc(-c4cc(F)c5nc6n(c5c4)C(C)(C)CC6)c(F)cn3)nc2)CC1: 2.9

Query compound follows.
QUERY: Look up IC50: CN(C)[C@H]1CCN(c2ccc(Nc3ncc(F)c(-c4cc(F)c5nc6n(c5c4)C(C)(C)CC6)n3)nc2)C1
RESULT: 3.96
